- Assay Target: GTPase KRas (Homo sapiens)
- Sequence (P01116 whole entry): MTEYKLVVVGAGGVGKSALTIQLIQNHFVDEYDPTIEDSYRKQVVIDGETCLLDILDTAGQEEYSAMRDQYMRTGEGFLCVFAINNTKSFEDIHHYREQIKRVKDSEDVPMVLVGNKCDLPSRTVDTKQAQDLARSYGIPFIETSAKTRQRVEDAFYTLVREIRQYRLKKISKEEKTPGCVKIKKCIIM
- Assay Name: Inhibition of KRas activation in HEK 293T-REx Flp-In cells harboring Venus-RBD-CRD/mCherry-CAAX assessed as reduction in Venus-RBD-CRD recruitment to plasma membrane by inverted confocal microscopy
Quantity Name: EC50 (µM)
Numbers only, in µM.

Recorded EC50 of Cc1[nH]c2cc(Cl)cc(Cl)c2c1CCN , please.
15.8

###

- Assay Name: Binding affinity to GppNHp-bound N-terminal His6-tagged KRAS4B G12D mutant (1 to 169 residues) (unknown origin) by microscale thermophoresis
- Set-up: species or system Homo sapiens
Quantity Name: pKd
Numbers only, as −log10 of the molar value.

Recorded pKd of NC1(C(=O)NCCCn2cc(-c3ccc(OC(F)(F)F)cc3)c3cc(CN4CCN(Cc5c(Cl)cccc5Cl)CC4)ccc32)CCNCC1 , please.
5.05
